target: Intestinal-type alkaline phosphatase (Mus musculus); assay: mouse intestinal alkaline phosphatase activators, dose response, biochemical, luminescence, uHTS hits (AID 488783)
Sequence (P24822 whole entry, looked up): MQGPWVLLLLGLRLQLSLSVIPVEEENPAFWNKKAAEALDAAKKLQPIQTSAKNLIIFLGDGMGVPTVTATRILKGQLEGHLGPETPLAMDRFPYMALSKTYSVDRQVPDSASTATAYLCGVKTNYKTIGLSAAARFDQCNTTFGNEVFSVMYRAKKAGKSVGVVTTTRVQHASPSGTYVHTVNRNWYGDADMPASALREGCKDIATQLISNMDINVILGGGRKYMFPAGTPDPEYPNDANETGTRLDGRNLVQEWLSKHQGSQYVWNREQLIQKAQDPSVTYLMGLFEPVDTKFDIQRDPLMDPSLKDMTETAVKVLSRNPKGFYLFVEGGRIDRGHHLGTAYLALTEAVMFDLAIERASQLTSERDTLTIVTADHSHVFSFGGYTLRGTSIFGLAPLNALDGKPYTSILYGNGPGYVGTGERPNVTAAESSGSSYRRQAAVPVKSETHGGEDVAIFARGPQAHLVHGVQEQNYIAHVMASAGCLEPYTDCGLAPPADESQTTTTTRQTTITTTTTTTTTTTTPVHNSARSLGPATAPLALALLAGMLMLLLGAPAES
endpoint: EC50 (µM)

1: O=C(NN=CC1=CC(=O)C(=O)CC1)NN=CC1=CC(=O)C(=O)CC1
2: CN(CCO)c1ccc(CN=Nc2ccc([N+](=O)[O-])cc2S(=O)(=O)Nc2ccccc2C(=O)O)cc1
3: O=C1CC(=O)c2c(O)cc(O)c(O)c2C1=O [4,5,7,8-tetrahydroxy-1,2-naphthoquinone]
4: Cc1cc(=O)[nH]c(N=NCc2ccc(O)c(O)c2)n1 [MLS001194906]
Q) Put the above molecules in order of rising EC50, beginning with the smallest. Note for the reader: the ranking is given by listing the labels in the order requested.
A) 1, 3, 2, 4
(1: 4.96 µM, 3: 9.93 µM, 2: 17.5 µM, 4: 58.7 µM)

Data origin: BindingDB's records for doi:10.7270/Q2J38R0R
